Recorded inhibition values for a group of compounds are listed next.
target: Autotaxin (Homo sapiens, UniProt Q13822); experiment: Inhibition of human recombinant C-terminal FLAG-tagged autotaxin expressed in baculovirus-infected Sf9 cells assessed as FS-3 hydrolysis at 10 uM relative to control
The answer is to be given in %; state only the numeric part.

samplesmiles=Cc1ccccc1/N=N/c1c(S(=O)(=O)O)cc2cc(NC(=O)Nc3ccc4c(O)c(/N=N/c5ccc6cc(S(=O)(=O)O)ccc6c5)c(S(=O)(=O)O)cc4c3)ccc2c1O subjectoftest="Autotaxin (Homo sapiens, UniProt Q13822)" endpointvalue=71
samplesmiles=Cc1cc(/N=N/c2ccc(/C=C/c3ccc(/N=N/c4cc(C)c(N)c(/N=N/c5ccc(S(=O)(=O)O)cc5)c4N)cc3S(=O)(=O)O)c(S(=O)(=O)O)c2)c(N)c(/N=N/c2ccc(S(=O)(=O)O)cc2)c1N subjectoftest="Autotaxin (Homo sapiens, UniProt Q13822)" endpointvalue=35
samplesmiles=Cc1ccc(C(=O)Nc2ccc(S(=O)(=O)O)c3cc(S(=O)(=O)O)cc(S(=O)(=O)O)c23)cc1NC(=O)c1cccc(NC(=O)Nc2cccc(C(=O)Nc3cc(C(=O)Nc4ccc(S(=O)(=O)O)c5cc(S(=O)(=O)O)cc(S(=O)(=O)O)c45)ccc3C)c2)c1 subjectoftest="Autotaxin (Homo sapiens, UniProt Q13822)" endpointvalue=27

Documented inhibition of "Nc1cccc(/N=N/c2c(S(=O)(=O)O)cc3cc(Nc4ccc5c(O)c(/N=N/c6cccc(N)c6)c(S(=O)(=O)O)cc5c4)ccc3c2O)c1" : 33

Record "O=C(Nc1ccc2cc(S(=O)(=O)O)cc(S(=O)(=O)O)c2c1)Nc1ccc2cc(S(=O)(=O)O)cc(S(=O)(=O)O)c2c1" . Reported inhibition: 0

Short answer for "COc1cc(/N=N/c2cccc(S(=O)(=O)O)c2)ccc1NC(=O)Nc1ccc(/N=N/c2ccc(O)c(C(=O)O)c2)cc1" : inhibition was 21

Just so you know, measured inhibition for "O=C(N/N=C/c1ccc(O)c(S(=O)(=O)O)c1)C(=O)N/N=C/c1ccc(O)c(S(=O)(=O)O)c1" came out at 5

Given item "O=C(Nc1ccc2c(O)cc(S(=O)(=O)O)cc2c1)Nc1ccc2c(O)cc(S(=O)(=O)O)cc2c1" , the value recorded as its inhibition is 11

For record "COc1cc(/N=N/c2c(S(=O)(=O)O)cc3cc(NC(=O)Nc4ccc5c(O)c(/N=N/c6ccc7cc(S(=O)(=O)O)ccc7c6)c(S(=O)(=O)O)cc5c4)ccc3c2O)c(C)cc1N" the listed inhibition is 70

Input "CCCCc1ccc(Nc2ccc(Nc3ccc(CCCC)cc3S(=O)(=O)O)c3c2C(=O)c2ccccc2C3=O)c(S(=O)(=O)O)c1" . Output inhibition: 8

Form field inhibition, entry "Cc1ccc(Nc2ccc(Nc3ccc(C)cc3S(=O)(=O)O)c3c2C(=O)c2ccccc2C3=O)c(S(=O)(=O)O)c1" : 8

Source listed as ChEMBL document CHEMBL1156229.
